assayed target: PARP domain of TNKS2 (Homo sapiens, UniProt Q9H2K2)
Sequence (Q9H2K2 959-1164): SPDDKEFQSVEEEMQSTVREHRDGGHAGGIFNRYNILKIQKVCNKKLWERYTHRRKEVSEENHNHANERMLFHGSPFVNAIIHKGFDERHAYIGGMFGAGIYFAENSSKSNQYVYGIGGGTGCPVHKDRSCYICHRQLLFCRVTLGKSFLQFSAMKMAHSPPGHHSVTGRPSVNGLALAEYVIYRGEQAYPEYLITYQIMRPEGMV
metric: pIC50
Field pIC50 (float): negative decimal logarithm of the concentration in molar.

Examples with their reported pIC50 follow.
1. NC(=O)c1cccc2ncc(-c3ccc(Cl)cc3)nc12 : 5.44
2. Cc1nc2c(c(=O)[nH]1)CSCC2 : 5.52

Q: Supply reported pIC50 belonging to this molecule: Nc1cccc2c(=O)[nH]ccc12
A: 5.00

Q: Supply reported pIC50 belonging to this molecule: O=C1NCCc2c(OCCCCN3CCCCC3)cccc21
A: 5.55

Q: Supply reported pIC50 belonging to this molecule: NC(=O)c1ccc(I)c([N+](=O)[O-])c1 [BSI-201, 4-Iodo-3-nitrobenzamide]
A: 6.38

Q: Supply reported pIC50 belonging to this molecule: Oc1cccc2c(O)nccc12
A: 5.82
